study-system: DLL3 endogenously expressed on NCI-H82 cells (UniProt Q9NYJ7)
Sequence (Q9NYJ7 27-618): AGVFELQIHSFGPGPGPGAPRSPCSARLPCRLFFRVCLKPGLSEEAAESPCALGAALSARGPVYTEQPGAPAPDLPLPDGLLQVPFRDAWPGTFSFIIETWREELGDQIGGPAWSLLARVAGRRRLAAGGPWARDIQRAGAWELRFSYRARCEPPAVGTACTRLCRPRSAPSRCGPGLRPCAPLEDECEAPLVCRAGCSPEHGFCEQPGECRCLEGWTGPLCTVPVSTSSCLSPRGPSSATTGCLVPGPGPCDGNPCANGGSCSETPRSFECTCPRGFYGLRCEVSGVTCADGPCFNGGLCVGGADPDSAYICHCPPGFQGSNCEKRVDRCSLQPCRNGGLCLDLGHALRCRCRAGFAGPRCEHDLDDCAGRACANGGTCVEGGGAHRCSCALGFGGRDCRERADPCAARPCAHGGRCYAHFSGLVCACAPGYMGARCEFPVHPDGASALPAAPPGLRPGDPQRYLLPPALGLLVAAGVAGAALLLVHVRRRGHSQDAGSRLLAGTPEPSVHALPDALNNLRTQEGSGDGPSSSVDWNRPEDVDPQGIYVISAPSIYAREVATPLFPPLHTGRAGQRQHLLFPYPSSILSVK
test: FACS on NCI-H82 cells; antibody 0.00128 nM
Entries and their measured MFI follow.
Please reply with the value in numeric form only.

Here is how some binders turned out for MFI.
Hab008L3H5-hFc (scFv, part only; not given: scFv linker and human IgG1 Fc, V domains shown, not shown: another chain or arm of the molecule; a dimerising Fc or GST; small tags and cut ends) VL: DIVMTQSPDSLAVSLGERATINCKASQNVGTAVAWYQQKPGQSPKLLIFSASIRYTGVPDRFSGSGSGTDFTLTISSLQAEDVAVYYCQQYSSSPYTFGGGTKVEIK VH: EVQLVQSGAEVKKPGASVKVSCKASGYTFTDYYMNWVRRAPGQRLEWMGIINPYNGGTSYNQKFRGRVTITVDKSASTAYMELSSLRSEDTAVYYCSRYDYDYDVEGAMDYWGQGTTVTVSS
99
Hab015VL4VH6a-hFc (scFv, part only; not given: scFv linker and human IgG1 Fc, V domains shown, not shown: another chain or arm of the molecule; a dimerising Fc or GST; small tags and cut ends) VL: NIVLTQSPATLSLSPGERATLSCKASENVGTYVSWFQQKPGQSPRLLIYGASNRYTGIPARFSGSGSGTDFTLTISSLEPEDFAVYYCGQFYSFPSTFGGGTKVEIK VH: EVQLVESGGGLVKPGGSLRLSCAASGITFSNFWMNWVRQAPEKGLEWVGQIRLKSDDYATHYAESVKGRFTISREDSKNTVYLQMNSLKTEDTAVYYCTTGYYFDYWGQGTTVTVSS
118

Next:
Reported MFI of Hab015VL5VH6a-hFc (scFv, part only; not given: scFv linker and human IgG1 Fc, V domains shown, not shown: another chain or arm of the molecule; a dimerising Fc or GST; small tags and cut ends) VL: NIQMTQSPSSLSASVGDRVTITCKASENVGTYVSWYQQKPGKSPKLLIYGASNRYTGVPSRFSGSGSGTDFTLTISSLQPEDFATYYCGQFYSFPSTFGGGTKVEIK VH: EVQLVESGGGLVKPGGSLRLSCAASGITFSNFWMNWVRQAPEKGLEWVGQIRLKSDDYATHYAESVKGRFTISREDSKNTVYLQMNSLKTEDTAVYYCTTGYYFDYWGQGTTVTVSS : 117

Sourced from patent EP4786492A1
